ASSAY_TARGET: Neu5Ac(a2-3)Gal(b1-4)GlcNAc(b1-3)Gal(b1-4)GlcNAc(b1-3)Gal(b1-4)GlcNAc
METHOD: glycan array binding signal (z-score within array); higher = stronger binding
MEASUREMENT_CONTEXT: glycan notation: IUPAC condensed, linker removed
Only a selection was taken, and the strongest signals are over-represented in it overall.
glycan array binding signal (z-score) values, listed per item
Enter a number only.

SfaEH (Escherichia coli), Q1RDG5 (protein) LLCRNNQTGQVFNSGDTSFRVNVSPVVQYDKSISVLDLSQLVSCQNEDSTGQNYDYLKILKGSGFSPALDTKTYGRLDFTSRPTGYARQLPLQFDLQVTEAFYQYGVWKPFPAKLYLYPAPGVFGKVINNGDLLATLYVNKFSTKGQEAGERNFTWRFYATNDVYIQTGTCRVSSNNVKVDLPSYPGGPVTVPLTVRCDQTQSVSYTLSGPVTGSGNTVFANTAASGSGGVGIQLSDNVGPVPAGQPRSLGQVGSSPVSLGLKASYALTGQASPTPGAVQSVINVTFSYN | 7.11

Qu. Look up glycan array binding signal (z-score) of ConA (Canavalia ensiformis), P02866 (protein) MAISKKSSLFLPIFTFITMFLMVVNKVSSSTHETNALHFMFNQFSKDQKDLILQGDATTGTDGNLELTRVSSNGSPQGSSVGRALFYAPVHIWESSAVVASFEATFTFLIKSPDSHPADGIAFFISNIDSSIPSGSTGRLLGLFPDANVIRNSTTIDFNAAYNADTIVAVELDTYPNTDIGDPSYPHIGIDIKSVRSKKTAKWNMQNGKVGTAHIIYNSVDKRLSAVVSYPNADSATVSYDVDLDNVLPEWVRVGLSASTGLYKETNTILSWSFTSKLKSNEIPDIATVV and report it.
Ans. -0.269
